Molecular target: Cyno BCMA
Assay: Kinetics and affinity of cyno BCMA/human IgG interactions by SPR (Bio-Rad Proteon XPR36)
Format: binding, cynomolgus
Settings: 37° C.

MOLECULE	UNIT_INFO	kd Cyno
COMBO_Rd4_6 nM_C25: anti-BCMA antibody (antibody, V domains shown) VH: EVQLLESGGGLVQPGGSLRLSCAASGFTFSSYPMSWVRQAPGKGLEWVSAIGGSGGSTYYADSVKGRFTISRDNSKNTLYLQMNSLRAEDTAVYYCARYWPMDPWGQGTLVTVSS VL: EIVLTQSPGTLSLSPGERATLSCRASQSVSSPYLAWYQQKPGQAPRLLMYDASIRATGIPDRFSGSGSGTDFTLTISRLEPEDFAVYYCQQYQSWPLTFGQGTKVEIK	s⁻¹	0.000226
C01_Rd4_0.6 nM_C09: anti-BCMA antibody (antibody, V domains shown) VH: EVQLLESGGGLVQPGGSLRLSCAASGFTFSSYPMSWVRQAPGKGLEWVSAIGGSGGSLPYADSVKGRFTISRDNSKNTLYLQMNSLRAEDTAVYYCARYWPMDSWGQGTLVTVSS VL: EIVLTQSPGTLSLSPGERATLSCRASQSVSSLFLAWYQQKPGQAPRLLIYDASSRAPGIPDRFSGSGSGTDFTLTISRLEPEDFAVYYCQQYSAWPLTFGQGTKVEIK	s⁻¹	0.00936
A02_Rd4_0.6 nM_C26: anti-BCMA antibody (antibody, V domains shown) VH: EVQLLESGGGLVQPGGSLRLSCAASGFTFSSYAMNWVRQAPGKGLEWVSAILMSGGSTYYADSVKGRFTISRDNSKNTLYLQMNSLRAEDTAVYYCARYWPMSLWGQGTLVTVSS VL: EIVLTQSPGTLSLSPGERATLSCGPSQSVSSSYLAWYQQKPGQAPRLLMYDASIRATGIPDRFSGSGSGTDFTLTISRLEPEDFAVYYCQQYQSWPLTFGQGTKVEIK	s⁻¹	0.00256
